# Tgt: Ybr033w (UniProt P38073)
# Sequence: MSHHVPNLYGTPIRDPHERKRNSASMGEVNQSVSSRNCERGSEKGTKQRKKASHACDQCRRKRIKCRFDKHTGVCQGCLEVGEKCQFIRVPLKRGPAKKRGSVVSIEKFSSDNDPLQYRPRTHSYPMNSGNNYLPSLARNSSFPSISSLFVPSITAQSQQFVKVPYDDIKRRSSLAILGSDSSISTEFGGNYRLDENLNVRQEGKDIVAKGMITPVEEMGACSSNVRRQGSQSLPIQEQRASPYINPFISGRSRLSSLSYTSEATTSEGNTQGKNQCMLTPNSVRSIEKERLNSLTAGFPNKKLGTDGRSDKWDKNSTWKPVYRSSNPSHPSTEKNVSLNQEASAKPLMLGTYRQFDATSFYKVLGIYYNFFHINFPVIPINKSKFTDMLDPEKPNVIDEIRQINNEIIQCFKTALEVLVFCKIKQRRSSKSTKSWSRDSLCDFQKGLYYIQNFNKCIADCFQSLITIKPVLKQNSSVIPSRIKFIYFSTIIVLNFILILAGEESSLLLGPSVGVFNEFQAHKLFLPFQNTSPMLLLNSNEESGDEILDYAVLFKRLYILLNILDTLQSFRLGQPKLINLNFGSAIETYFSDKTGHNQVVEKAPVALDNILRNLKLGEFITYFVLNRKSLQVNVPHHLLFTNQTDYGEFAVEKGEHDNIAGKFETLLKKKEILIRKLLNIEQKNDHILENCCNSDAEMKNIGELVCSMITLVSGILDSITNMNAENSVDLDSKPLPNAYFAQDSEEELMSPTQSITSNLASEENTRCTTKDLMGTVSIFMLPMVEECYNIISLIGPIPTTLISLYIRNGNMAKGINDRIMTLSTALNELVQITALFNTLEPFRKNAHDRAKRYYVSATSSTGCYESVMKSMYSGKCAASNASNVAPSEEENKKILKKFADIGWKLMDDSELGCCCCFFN
# Test Description: PBM E-score (8-mer binding enrichment) (E-score (-0.5 to 0.5)); higher = stronger / more preferred TF binding
# Test Context: protein concentration: 200 nM; construct: GST-full length
Whole data set: some 33,000 sequences, median “E-score (-0.5 to 0.5)” near -0.012, cut for the highest 2% near 0.29. This is one part of a sample in which the highest values are shown more often than they occur.
Observable: PBM E-score
# output: bare number, no unit

ACAATAAA
0.14
CTGGCCGC
-0.0871
CATTCTCC
0.0353
CTAATAAC
0.216
GTAATATA
0.299

Kindly state the measured PBM E-score obtained for "ATGATTCC" with Ybr033w (UniProt P38073).
0.336

Similarly, "GATAAAAC" ?
0.323

And for "ATAGAGCG" ?
-0.117

Same question, "CGGAATAA" this time
0.468

Field entry: "ATTTCTCA"
0.192

And what about the sequence "CGTGTGAG" ?
-0.225

Follow-up item: "CTAATTCC"
0.0934

###

# Tgt: Ybr033w (UniProt P38073)
# Sequence: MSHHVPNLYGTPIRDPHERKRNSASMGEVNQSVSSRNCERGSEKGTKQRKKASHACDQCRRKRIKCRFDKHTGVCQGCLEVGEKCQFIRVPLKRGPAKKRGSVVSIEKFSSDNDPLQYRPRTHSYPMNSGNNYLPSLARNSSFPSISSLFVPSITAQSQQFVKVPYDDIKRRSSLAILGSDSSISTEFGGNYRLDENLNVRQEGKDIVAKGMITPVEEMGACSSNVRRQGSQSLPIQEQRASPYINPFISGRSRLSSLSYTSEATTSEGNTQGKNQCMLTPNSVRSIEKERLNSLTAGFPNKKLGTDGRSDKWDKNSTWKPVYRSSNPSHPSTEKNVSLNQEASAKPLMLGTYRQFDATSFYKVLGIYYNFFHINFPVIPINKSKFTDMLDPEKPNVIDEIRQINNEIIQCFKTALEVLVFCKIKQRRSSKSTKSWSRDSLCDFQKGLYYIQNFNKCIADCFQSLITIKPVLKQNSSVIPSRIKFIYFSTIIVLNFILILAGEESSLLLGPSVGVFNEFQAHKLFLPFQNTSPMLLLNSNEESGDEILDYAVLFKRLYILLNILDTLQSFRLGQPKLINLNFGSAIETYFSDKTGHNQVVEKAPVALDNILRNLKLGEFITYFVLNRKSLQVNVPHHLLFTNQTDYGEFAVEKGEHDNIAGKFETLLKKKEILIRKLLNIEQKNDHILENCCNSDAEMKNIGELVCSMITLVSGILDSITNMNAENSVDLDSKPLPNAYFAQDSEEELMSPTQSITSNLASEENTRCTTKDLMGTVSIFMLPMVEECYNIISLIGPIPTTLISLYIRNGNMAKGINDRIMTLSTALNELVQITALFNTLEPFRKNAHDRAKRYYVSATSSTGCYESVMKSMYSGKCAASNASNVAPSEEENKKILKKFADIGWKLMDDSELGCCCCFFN
# Test Description: PBM E-score (8-mer binding enrichment) (E-score (-0.5 to 0.5)); higher = stronger / more preferred TF binding
# Test Context: protein concentration: 200 nM; construct: GST-full length
The full ranking holds about 33,000 sequences; the median of “E-score (-0.5 to 0.5)” is about -0.012, and the highest 2% start at about 0.29. This excerpt belongs to a sample that is enriched for the highest values.
Observable: PBM E-score

Previously resolved entries follow.
CCGGATAA
0.454
CGGATTAG
-0.0597

Now for another entry.
Quick one: PBM E-score for "TAAGCTTA" ?
0.102

###

# Tgt: Ybr033w (UniProt P38073)
# Sequence: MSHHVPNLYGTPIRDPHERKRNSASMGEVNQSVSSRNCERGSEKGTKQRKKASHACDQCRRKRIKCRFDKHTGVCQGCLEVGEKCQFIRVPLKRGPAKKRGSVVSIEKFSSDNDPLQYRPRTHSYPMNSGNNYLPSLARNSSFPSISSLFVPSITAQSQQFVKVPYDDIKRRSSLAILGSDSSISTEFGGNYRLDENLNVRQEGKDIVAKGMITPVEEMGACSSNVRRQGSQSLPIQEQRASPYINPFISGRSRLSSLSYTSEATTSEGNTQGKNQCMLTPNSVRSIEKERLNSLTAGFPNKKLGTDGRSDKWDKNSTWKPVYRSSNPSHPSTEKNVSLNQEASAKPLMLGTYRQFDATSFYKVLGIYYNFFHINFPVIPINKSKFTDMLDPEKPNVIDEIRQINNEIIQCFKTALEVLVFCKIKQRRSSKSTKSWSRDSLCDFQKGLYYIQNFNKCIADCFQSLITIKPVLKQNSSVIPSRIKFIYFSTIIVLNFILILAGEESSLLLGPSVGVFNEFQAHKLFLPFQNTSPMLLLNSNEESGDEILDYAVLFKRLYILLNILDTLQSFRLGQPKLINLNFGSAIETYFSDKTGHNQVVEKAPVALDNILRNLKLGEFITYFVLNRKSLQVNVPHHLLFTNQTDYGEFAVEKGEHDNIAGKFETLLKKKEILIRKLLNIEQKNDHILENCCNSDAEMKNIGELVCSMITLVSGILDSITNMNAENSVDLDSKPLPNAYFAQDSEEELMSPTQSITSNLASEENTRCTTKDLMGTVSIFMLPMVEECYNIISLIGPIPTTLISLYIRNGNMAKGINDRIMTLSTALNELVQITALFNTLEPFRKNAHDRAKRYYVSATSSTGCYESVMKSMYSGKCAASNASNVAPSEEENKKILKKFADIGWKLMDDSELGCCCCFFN
# Test Description: PBM E-score (8-mer binding enrichment) (E-score (-0.5 to 0.5)); higher = stronger / more preferred TF binding
# Test Context: protein concentration: 200 nM; construct: GST-full length
Whole data set: some 33,000 sequences, median “E-score (-0.5 to 0.5)” near -0.012, cut for the highest 2% near 0.29. The entries come from a sample that favours the highest values as a whole.
Below: a set of entries, each annotated with reported PBM E-score.
Write the number on its own, no unit after it.

TGGAAACA
-0.0929
GCTATTTA
0.132

// returns reported PBM E-score for input "CGGAGGGA"
-0.057

###

# Tgt: Ybr033w (UniProt P38073)
# Sequence: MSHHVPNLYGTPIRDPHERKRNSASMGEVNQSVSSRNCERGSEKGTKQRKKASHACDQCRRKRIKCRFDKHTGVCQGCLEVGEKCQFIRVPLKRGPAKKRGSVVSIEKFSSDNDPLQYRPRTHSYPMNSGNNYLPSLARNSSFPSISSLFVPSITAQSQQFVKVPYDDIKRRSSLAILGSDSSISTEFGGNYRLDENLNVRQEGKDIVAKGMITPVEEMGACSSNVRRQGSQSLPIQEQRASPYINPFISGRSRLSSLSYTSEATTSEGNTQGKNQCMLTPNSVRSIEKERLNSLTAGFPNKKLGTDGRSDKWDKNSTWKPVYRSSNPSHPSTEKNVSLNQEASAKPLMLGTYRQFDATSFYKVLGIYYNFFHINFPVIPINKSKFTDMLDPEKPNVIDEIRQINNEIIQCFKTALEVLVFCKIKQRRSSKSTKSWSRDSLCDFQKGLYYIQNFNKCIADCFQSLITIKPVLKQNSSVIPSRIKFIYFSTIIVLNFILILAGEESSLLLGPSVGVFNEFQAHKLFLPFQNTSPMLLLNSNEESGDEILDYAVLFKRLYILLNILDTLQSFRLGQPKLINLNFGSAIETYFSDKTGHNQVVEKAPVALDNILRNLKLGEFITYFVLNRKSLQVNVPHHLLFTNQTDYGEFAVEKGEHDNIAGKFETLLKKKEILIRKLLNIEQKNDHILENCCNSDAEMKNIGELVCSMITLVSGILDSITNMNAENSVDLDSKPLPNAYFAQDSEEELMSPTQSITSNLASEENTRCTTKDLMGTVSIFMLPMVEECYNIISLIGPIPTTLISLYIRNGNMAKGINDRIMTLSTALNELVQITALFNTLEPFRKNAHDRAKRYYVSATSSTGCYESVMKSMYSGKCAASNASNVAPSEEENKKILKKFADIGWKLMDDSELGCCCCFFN
# Test Description: PBM E-score (8-mer binding enrichment) (E-score (-0.5 to 0.5)); higher = stronger / more preferred TF binding
# Test Context: protein concentration: 200 nM; construct: GST-full length
Over roughly 33,000 sequences, “E-score (-0.5 to 0.5)” has its median near -0.012; the highest 2% begin near 0.29. The sample as a whole holds a higher share of the highest values than the screen did.
Threshold rule: PBM E-score greater than or equal to 0.003 is Fulfilled; below that, Not fulfilled.

As a guide, the following entries are already answered.
ACGGACGT
Not fulfilled
AAACGGAC
Not fulfilled
ATTCTAGC
Fulfilled
GACACTAC
Not fulfilled
GGATGAAC
Fulfilled

State whether the measured PBM E-score reaches 0.003, counting equality as reaching it, for "CATCTCAA"
Fulfilled

What do we get for "AATGTCAA" ?
Fulfilled

Ok, now "TATCTCAA"
Fulfilled
